- METHOD_NOTES: Toxicity liver stage against HepG2, at 10uM
- Assay type: cell-based
- Set-up: test concentration 10 uM, cell line HepG2-A16-CD81EGFP
- EXPERIMENTAL_CONDITIONS: human, HepG2-A16-CD81EGFP cells; read-out: INHIBITION
Each entry below lists one item and its recorded cytotoxicity at 10 µM value.
MEASURED_PROPERTY: cytotoxicity at 10 µM (%)

{"MOLECULE": "CCc1nc2n(n1)CC(NCc1cnc(-c3ccccc3)nc1)CC2 (stereo unspecified)", "MEASURED_PROPERTY": "cytotoxicity at 10 µM", "UNIT_TEXT": "%", "MEASURED_VALUE": 0.702}
{"MOLECULE": "O=C(NCC1(c2ccc(F)cc2)CC1)N1CCC2(CCOC2)C1 (stereo unspecified)", "MEASURED_PROPERTY": "cytotoxicity at 10 µM", "UNIT_TEXT": "%", "MEASURED_VALUE": -6.72}
{"MOLECULE": "c1cnc2c(-c3nccn3C[C@@H]3CCCN4CCCC[C@H]34)cccc2c1", "MEASURED_PROPERTY": "cytotoxicity at 10 µM", "UNIT_TEXT": "%", "MEASURED_VALUE": 1.83}
{"MOLECULE": "CN(C(=O)c1cccn1C)C1CCC(NC(=O)OC(C)(C)C)CC1 (stereo unspecified)", "MEASURED_PROPERTY": "cytotoxicity at 10 µM", "UNIT_TEXT": "%", "MEASURED_VALUE": -4.18}
{"MOLECULE": "CC1(c2ccc(Br)cc2)CC(=O)N(CC(N)=O)C1=O (stereo unspecified)", "MEASURED_PROPERTY": "cytotoxicity at 10 µM", "UNIT_TEXT": "%", "MEASURED_VALUE": 2.05}
{"MOLECULE": "Cc1ccc(CN2CC[C@]3(C[C@H](OCc4ccccn4)CO3)C2)o1", "MEASURED_PROPERTY": "cytotoxicity at 10 µM", "UNIT_TEXT": "%", "MEASURED_VALUE": -0.617}
{"MOLECULE": "C[C@H](C(=O)N1Cc2ccccc2CC2(CCCN2C)C1)c1ccccc1 (stereo partly specified)", "MEASURED_PROPERTY": "cytotoxicity at 10 µM", "UNIT_TEXT": "%", "MEASURED_VALUE": 6.42}
{"MOLECULE": "COc1cc(NC2CCCN(c3ncccn3)C2)cc(OC)c1 (stereo unspecified)", "MEASURED_PROPERTY": "cytotoxicity at 10 µM", "UNIT_TEXT": "%", "MEASURED_VALUE": -16}
{"MOLECULE": "CC(Cn1ccnc1)NC(=O)Nc1ccccn1 (stereo unspecified)", "MEASURED_PROPERTY": "cytotoxicity at 10 µM", "UNIT_TEXT": "%", "MEASURED_VALUE": -16.4}
{"MOLECULE": "COc1cccc(C(O)Cn2ncc3ncccc3c2=O)c1 (stereo unspecified)", "MEASURED_PROPERTY": "cytotoxicity at 10 µM", "UNIT_TEXT": "%", "MEASURED_VALUE": -2.45}
{"MOLECULE": "Cc1cccc(CN2CCC(c3nccn3CC(N)=O)CC2)n1", "MEASURED_PROPERTY": "cytotoxicity at 10 µM", "UNIT_TEXT": "%", "MEASURED_VALUE": -5.41}
{"MOLECULE": "Cn1ccnc1COc1ccc(CO)cc1", "MEASURED_PROPERTY": "cytotoxicity at 10 µM", "UNIT_TEXT": "%", "MEASURED_VALUE": -5.05}
{"MOLECULE": "CC(C)CCn1cc(C(C(=O)O)N2CCC(N3CCSCC3)CC2)cn1 (stereo unspecified)", "MEASURED_PROPERTY": "cytotoxicity at 10 µM", "UNIT_TEXT": "%", "MEASURED_VALUE": -1.09}
{"MOLECULE": "CS(=O)(=O)CCn1ccc(NC(=O)CCc2cccc(F)c2)n1", "MEASURED_PROPERTY": "cytotoxicity at 10 µM", "UNIT_TEXT": "%", "MEASURED_VALUE": -7.37}
{"MOLECULE": "O=C(NCC1CC1)C1CN(Cc2ccncc2)Cc2ccnn2C1 (stereo unspecified)", "MEASURED_PROPERTY": "cytotoxicity at 10 µM", "UNIT_TEXT": "%", "MEASURED_VALUE": -0.902}
{"MOLECULE": "COc1ncccc1C(=O)NCCn1cnc(C)cc1=O", "MEASURED_PROPERTY": "cytotoxicity at 10 µM", "UNIT_TEXT": "%", "MEASURED_VALUE": -0.37}
{"MOLECULE": "CCCC(C)N(C)Cc1nnc(-c2ccco2)o1 (stereo unspecified)", "MEASURED_PROPERTY": "cytotoxicity at 10 µM", "UNIT_TEXT": "%", "MEASURED_VALUE": 2.49}
{"MOLECULE": "Cc1cnn(CC2CN(Cc3nc(C4CC4)no3)CCO2)c1 (stereo unspecified)", "MEASURED_PROPERTY": "cytotoxicity at 10 µM", "UNIT_TEXT": "%", "MEASURED_VALUE": -4.26}
{"MOLECULE": "Cc1ccc(CNCc2cccc3cn[nH]c23)c(OC2CCOC2)c1 (stereo unspecified)", "MEASURED_PROPERTY": "cytotoxicity at 10 µM", "UNIT_TEXT": "%", "MEASURED_VALUE": 9.6}
{"MOLECULE": "O=C(c1cccc(Cn2ccnc2)c1)N1CCCC(n2cccn2)C1 (stereo unspecified)", "MEASURED_PROPERTY": "cytotoxicity at 10 µM", "UNIT_TEXT": "%", "MEASURED_VALUE": -0.603}
{"MOLECULE": "CC(C)(C)c1noc(CCCC(=O)NCC2CCS(=O)(=O)C2)n1 (stereo unspecified)", "MEASURED_PROPERTY": "cytotoxicity at 10 µM", "UNIT_TEXT": "%", "MEASURED_VALUE": -15.4}
{"MOLECULE": "CCCc1n[nH]cc1C(=O)N1CCCC(c2nccn2CC2CC2)C1 (stereo unspecified)", "MEASURED_PROPERTY": "cytotoxicity at 10 µM", "UNIT_TEXT": "%", "MEASURED_VALUE": 1.1}
{"MOLECULE": "CC(=O)N1CCN(C(=O)c2cc(C(C)C)no2)[C@H]2CS(=O)(=O)C[C@H]21", "MEASURED_PROPERTY": "cytotoxicity at 10 µM", "UNIT_TEXT": "%", "MEASURED_VALUE": -7.8}
{"MOLECULE": "Cc1cn2c(n1)CCC(NC(=O)CCCOCc1ccccc1)C2 (stereo unspecified)", "MEASURED_PROPERTY": "cytotoxicity at 10 µM", "UNIT_TEXT": "%", "MEASURED_VALUE": -3.55}
{"MOLECULE": "CN1CC(C(=O)Nc2ccc(OCC(F)(F)C(F)F)nc2)CC1=O (stereo unspecified)", "MEASURED_PROPERTY": "cytotoxicity at 10 µM", "UNIT_TEXT": "%", "MEASURED_VALUE": -8.64}
{"MOLECULE": "O=c1cc(Cn2cncn2)nc2n1CCCN(CC1CCOCC1)C2", "MEASURED_PROPERTY": "cytotoxicity at 10 µM", "UNIT_TEXT": "%", "MEASURED_VALUE": 7.77}
{"MOLECULE": "Cc1ccc(CN(CC(=O)NCC2CCOC2)c2ccc(F)cc2)o1 (stereo unspecified)", "MEASURED_PROPERTY": "cytotoxicity at 10 µM", "UNIT_TEXT": "%", "MEASURED_VALUE": 9.83}
{"MOLECULE": "Cc1cnc(CNC(=O)[C@@]23CCO[C@@H]2CCN(C2CCCC2)C3)cn1", "MEASURED_PROPERTY": "cytotoxicity at 10 µM", "UNIT_TEXT": "%", "MEASURED_VALUE": -110}
{"MOLECULE": "CCN(CC1CCCO1)C(=O)Nc1cc(C(=O)OC)ccc1F (stereo unspecified)", "MEASURED_PROPERTY": "cytotoxicity at 10 µM", "UNIT_TEXT": "%", "MEASURED_VALUE": -4.77}
{"MOLECULE": "NC(=O)C1CCN(C(=O)NCc2csc(Br)c2)CC1", "MEASURED_PROPERTY": "cytotoxicity at 10 µM", "UNIT_TEXT": "%", "MEASURED_VALUE": -18}
{"MOLECULE": "Cc1noc(NC(=O)c2ccccc2)n1", "MEASURED_PROPERTY": "cytotoxicity at 10 µM", "UNIT_TEXT": "%", "MEASURED_VALUE": -0.269}
